Listing of recorded pIC50 by entry.
test system: TNF-α production in THP-1 cells; test: THP-1 cytological TNFa ELISA assay (LPS-stimulated); assay type: cell-based; conditions: Homo sapiens, TNF-α in culture supernatant, 150 ng/mL LPS, 18 hours
A value of pIC50 is the negative decimal logarithm of a concentration given in moles per litre.

// below: answered molecules
* Cc1cc(-c2nc(C(=O)Nc3cn4cc(CCC(C)(C)O)nc4cc3-c3ccccc3)co2)ccn1 | 7.82
* Cc1cc(-c2nc(C(=O)Nc3cn4cc(CCC(C)(C)O)nc4cc3N3CCC(O)CC3)co2)ccn1 | 6.97
* Cc1cc(-c2nc(C(=O)Nc3cn4cc(CCC(C)(C)O)nc4cc3C3CC3)co2)ccn1 | 6.62
* COC(=O)N1CCN(c2cc3nc(CCC(C)(C)O)cn3cc2NC(=O)c2coc(-c3ccnc(C)c3)n2)CC1 | 7.11
* Cc1cc(-c2nc(C(=O)Nc3cn4cc(CCC(=O)O)nc4cc3N3CCC(C)(C)CC3)co2)ccn1 | 6.77

Measured pIC50, CC(=O)N1CCN(c2cc3nc(CCC(C)(C)O)cn3cc2NC(=O)c2coc(-c3ccnc(C)c3)n2)CC1 : 6.59

Measured pIC50, Cc1cc(-c2nc(C(=O)Nc3cn4cc(CCC(=O)O)nc4cc3N3CCC(F)(F)CC3)co2)ccn1 : 6.49

Measured pIC50, Cc1cc(-c2nc(C(=O)Nc3cn4cc(CCC(C)(C)O)nc4cc3N3CCCCC3)co2)ccn1 : 6.91

###

target: human IRAK4 (Homo sapiens, UniProt Q9NWZ3); construct: purchased Reaction Biology Corp; test: In vitro IRAK4 kinase activity, 33P isotope-labeled kinase activity assay (Reaction Biology Corp); format: biochemical
// boundary case: IC50 equal to 0.9 nM maps to 0 (no); strictly smaller maps to 1 (yes)

- Cc1cc(-c2nc(C(=O)Nc3cn4cc(CCC(C)(C)O)nc4cc3N3CCC(F)(F)CC3)co2)ccn1: 1 (yes)
- Cc1cc(-c2nc(C(=O)Nc3cn4cc(CCC(C)(C)O)nc4cc3N3CCC(O)CC3)co2)ccn1: 0 (no)

# input for lookup
input: Answer whether the compound CC(C)(O)CCc1cn2cc(NC(=O)c3coc(-c4ccnc(C#N)c4)n3)c(N3CCCCC3)cc2n1 has IC50 strictly less than 0.9 nM
output: 1 (yes)

###

As an illustration, consider measured pIC50 for compounds on human BTK (Homo sapiens, UniProt Q06187).
Sequence (Q06187 whole entry): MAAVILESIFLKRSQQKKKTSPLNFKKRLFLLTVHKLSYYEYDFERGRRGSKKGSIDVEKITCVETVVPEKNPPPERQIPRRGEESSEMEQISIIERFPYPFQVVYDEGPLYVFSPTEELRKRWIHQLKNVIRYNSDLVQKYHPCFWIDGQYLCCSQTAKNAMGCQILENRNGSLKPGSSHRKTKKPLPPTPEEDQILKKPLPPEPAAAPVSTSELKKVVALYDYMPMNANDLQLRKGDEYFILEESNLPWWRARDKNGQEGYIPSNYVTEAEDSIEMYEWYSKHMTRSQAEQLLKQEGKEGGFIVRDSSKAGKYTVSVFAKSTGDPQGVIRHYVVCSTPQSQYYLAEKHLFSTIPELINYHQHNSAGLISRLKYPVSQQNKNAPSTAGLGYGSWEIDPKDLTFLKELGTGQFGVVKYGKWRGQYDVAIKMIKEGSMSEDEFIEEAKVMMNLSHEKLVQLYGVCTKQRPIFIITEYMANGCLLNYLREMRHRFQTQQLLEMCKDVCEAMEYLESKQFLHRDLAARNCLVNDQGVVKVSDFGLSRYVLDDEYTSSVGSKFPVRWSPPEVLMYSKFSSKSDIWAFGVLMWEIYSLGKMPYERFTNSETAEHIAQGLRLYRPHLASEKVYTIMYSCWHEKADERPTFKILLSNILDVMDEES
A value of pIC50 is the negative decimal logarithm of a concentration given in moles per litre.

pIC50 of Cc1cc(-c2nc(C(=O)Nc3cn4cc(CCC(C)(C)O)nc4cc3-c3cccc(Cl)c3)co2)ccn1 , assay on human BTK (Homo sapiens, UniProt Q06187), is 7.40

###

Target: human IRAK4 (Homo sapiens, UniProt Q9NWZ3)
Construct: purchased Reaction Biology Corp
Assay: In vitro IRAK4 kinase activity, 33P isotope-labeled kinase activity assay (Reaction Biology Corp)
Type: biochemical
Conditions: 33P-ATP, 120 minutes at room temperature; read-out: IRAK4/IC50
Procedure: The IC50 values were determined using ^33P isotope-labeled kinase activity assay (Reaction Biology Corp) to evaluate the inhibitory ability of the tested compounds on human IRAK4. Buffer conditions: 20 mM Hepes (pH 7.5), 10 mM MgCl2, 1 mM EGTA, 0.02% Brij35, 0.02 mg/mL BSA, 0.1 mM Na3VO4, 2 mM DTT, 1% DMSO. Test procedure: At room temperature, the tested compound was dissolved in DMSO to prepare a 10 mM solution for later use. […]
assay_endpoint: pIC50
A value of pIC50 is the negative decimal logarithm of a concentration given in moles per litre.

// below: answered molecules
- CC(C)(O)CCc1cn2cc(NC(=O)c3coc(-c4ccnc(C5CC5)c4)n3)c(N3CCCCC3)cc2n1: 9.00
- Cc1cc(-c2nc(C(=O)Nc3cn4cc(CCC(C)(C)O)nc4cc3-c3ccccc3C(N)=O)co2)ccn1: 7.96
- CC(=O)N1CCN(c2cc3nc(CCC(C)(C)O)cn3cc2NC(=O)c2coc(-c3ccnc(C)c3)n2)CC1: 8.96
- Cc1cc(-c2nc(C(=O)Nc3cn4cc(CCC(C)(C)O)nc4cc3N3CCC(C(=O)O)CC3)co2)ccn1: 8.60
- [2H]c1c([2H])c([2H])c(-c2cc3nc(CCC(C)(C)O)cn3cc2NC(=O)c2coc(-c3ccnc(C)c3)n2)c([2H])c1[2H]: 8.80

Measured pIC50, Cc1cc(-c2nc(C(=O)Nc3cn4cc(CCC(=O)O)nc4cc3-c3cccnc3)co2)ccn1 : 8.08

Measured pIC50, Cc1cc(-c2nc(C(=O)Nc3cn4cc(CCC(C)(C)O)nc4cc3C3CC3)co2)ccn1 : 8.70

Measured pIC50, Cc1cc(-c2nc(C(=O)Nc3cn4cc(CCC(C)(C)O)nc4cc3N3CCC(C)(C)CC3)co2)ccn1 : 8.68

Measured pIC50, CC(C)(O)CCc1cn2cc(NC(=O)c3coc(-c4ccnc(C(N)=O)c4)n3)c(N3CCCCC3)cc2n1 : 8.72

Measured pIC50, Cc1cc(-c2nc(C(=O)Nc3cn4cc(CCC(C)(C)O)nc4cc3N3CCCCC3)co2)ccn1 : 9.00

Measured pIC50, Cc1cc(-c2nc(C(=O)Nc3cn4cc(CCC(C)(C)O)nc4cc3N3CCC(C(C)(C)O)CC3)co2)ccn1 : 8.47

Measured pIC50, Cc1cc(-c2nc(C(=O)Nc3cn4cc(CCC(=O)O)nc4cc3N3CCC(F)(F)CC3)co2)ccn1 : 8.80

Measured pIC50, Cc1cc(-c2nc(C(=O)Nc3cn4cc(CCC(C)(C)O)nc4cc3N3CCC(CO)CC3)co2)ccn1 : 9.70

Measured pIC50, Cc1cc(-c2nc(C(=O)Nc3cn4cc(CCC(=O)O)nc4cc3-c3ccccc3)co2)ccn1 : 9.00

Measured pIC50, CC(C)(O)CCc1cn2cc(NC(=O)c3coc(-c4ccnc(C(F)(F)F)c4)n3)c(N3CCCCC3)cc2n1 : 8.62

###

test system: TNF-α production in THP-1 cells; assay: THP-1 cytological TNFa ELISA assay (LPS-stimulated); format: cell-based; conditions: Homo sapiens, TNF-α in culture supernatant, 150 ng/mL LPS, 18 hours
Listing of recorded IC50 by entry.
Field format: number, assumed µM, no unit text.

- Cc1cc(-c2nc(C(=O)Nc3cn4cc(CCC(C)(C)O)nc4cc3-c3cccc(F)c3)co2)ccn1: 0.021
- Cc1cc(-c2nc(C(=O)Nc3cn4cc(C(C)(C)O)nc4cc3N3CCCCC3)co2)ccn1: 0.038

Measured IC50, Cc1cc(-c2nc(C(=O)Nc3cn4cc(CCC(=O)O)nc4cc3N3CCCCC3)co2)ccn1 : 0.104

###

test system: TNF-α production in THP-1 cells; experiment: THP-1 cytological TNFa ELISA assay (LPS-stimulated); format: cell-based; conditions: Homo sapiens, TNF-α in culture supernatant, 150 ng/mL LPS, 18 hours
Listing of recorded pIC50 by entry.
A value of pIC50 is the negative decimal logarithm of a concentration given in moles per litre.

* CC(C)c1cc(-c2nc(C(=O)Nc3cn4cc(CCC(C)(C)O)nc4cc3N3CCCCC3)co2)ccn1 | 6.85
* CC(C)(O)CCc1cn2cc(NC(=O)c3coc(-c4ccnc(C(F)(F)F)c4)n3)c(N3CCCCC3)cc2n1 | 6.48
* Cc1cc(-c2nc(C(=O)Nc3cn4cc(CCC(C)(C)O)nc4cc3N3CCNCC3)co2)ccn1 | 6.25

Now turn to the next molecule.
Measured pIC50, Cc1cc(-c2nc(C(=O)Nc3cn4cc(CCC(C)(C)O)nc4cc3-c3ccccc3F)co2)ccn1 : 7.89

###

Target: human IRAK4 (Homo sapiens, UniProt Q9NWZ3)
Construct: purchased Reaction Biology Corp
Sequence (Q9NWZ3 1-460): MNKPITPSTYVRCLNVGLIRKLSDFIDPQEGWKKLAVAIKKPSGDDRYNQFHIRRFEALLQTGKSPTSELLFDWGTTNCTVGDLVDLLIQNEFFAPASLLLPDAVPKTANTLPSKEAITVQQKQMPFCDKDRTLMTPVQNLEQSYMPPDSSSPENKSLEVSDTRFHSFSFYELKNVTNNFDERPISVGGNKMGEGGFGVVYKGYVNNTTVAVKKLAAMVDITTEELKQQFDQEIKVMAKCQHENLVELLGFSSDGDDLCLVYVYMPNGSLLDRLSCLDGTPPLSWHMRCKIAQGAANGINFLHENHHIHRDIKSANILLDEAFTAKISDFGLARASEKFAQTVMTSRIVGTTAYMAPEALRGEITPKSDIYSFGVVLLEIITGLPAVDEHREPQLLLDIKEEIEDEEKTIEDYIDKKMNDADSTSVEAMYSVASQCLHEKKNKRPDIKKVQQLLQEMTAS
Experiment: In vitro IRAK4 kinase activity, 33P isotope-labeled kinase activity assay (Reaction Biology Corp)
Type: biochemical
assay_endpoint: IC50
Give the value; after it, write the unit.

- Cc1cc(-c2nc(C(=O)Nc3cn4cc(CCC(C)(C)O)nc4cc3N3CCC(CN)CC3)co2)ccn1 [WX014]: 0.9 nM
- Cc1cc(-c2nc(C(=O)Nc3cn4cc(CCC(=O)O)nc4cc3N3CCCCC3)co2)ccn1 [WX018]: 0.9 nM

IC50 of Cc1cc(-c2nc(C(=O)Nc3cn4cc(CCC(C)(C)O)nc4cc3N3CCOCC3)co2)ccn1 [WX002] , assay on human IRAK4 (Homo sapiens, UniProt Q9NWZ3), is 1.2 nM

IC50 of CC(C)c1cc(-c2nc(C(=O)Nc3cn4cc(CCC(C)(C)O)nc4cc3N3CCCCC3)co2)ccn1 [WX011] , assay on human IRAK4 (Homo sapiens, UniProt Q9NWZ3), is 1.5 nM

IC50 of Cc1cc(-c2nc(C(=O)Nc3cn4cc(CCC(C)(C)O)nc4cc3-c3ccccc3)co2)ccn1 [WX021] , assay on human IRAK4 (Homo sapiens, UniProt Q9NWZ3), is 0.5 nM
